species: Rattus norvegicus; assay: Biodistribution in rat muscle in the presence of NCAGd/0.01 M lig; assay type: ADME, organism-based, Muscle tissue; settings: in vivo
experimental-readout: ID/organ (%)

{"compound": "CC(CO)NCCNC(C)C(C)O (centres undefined)", "units-text": "%", "ID/organ": 6.25}
{"compound": "OC(CNCCNCC(O)c1ccccc1)c1ccccc1 (centres undefined)", "units-text": "%", "ID/organ": 6.09}

I = CC(O)C(C)NCCNC(C)C(C)O (centres undefined)
II = CC(C)(CO)NCCNC(C)(C)CO
query: Compare I and II and name the one whose reported ID/organ is smaller. To answer, give the label that identifies your chosen option.
result: II

Reference source: ChEMBL document CHEMBL1124314
